Exercise: state measured melting point for each of the molecules provided.

Q. Returns the measured melting point for the input molecule. Input: `O=C(N[C@@H](Cc1ccccc1)C(=O)N[C@H](CO)Cc1c[nH]c2ccccc12)OCc1ccccc1`
A. 154 to 156 °C

Q. Returns the measured melting point for the input molecule. Input: `Cc1cccc(S(=O)(=O)n2ccnc2)c1C#N`
A. 93 to 95 °C

Q. Returns the measured melting point for the input molecule. Input: `Cc1cc(F)ccc1-c1nc(NCC(F)(F)F)nc2c1ccc(=O)n2-c1c(F)cccc1F`
A. 195 to 196 °C

Q. Returns the measured melting point for the input molecule. Input: `CCOC(=O)c1cc(S(=O)(=O)N2CCN(CC)CC2)cnc1OCC`
A. 66 to 68 °C

Q. Returns the measured melting point for the input molecule. Input: CN(C(Cc1ccc(O)cc1)CN1CCN(c2ccccc2)CC1)S(=O)(=O)c1cccc2cnccc12 (centres undefined)
A. 201 °C

Q. Returns the measured melting point for the input molecule. Input: `Cc1cc(C)n(Cc2ccccc2Cl)c(=O)c1C#N`
A. 243 to 245 °C

Q. Returns the measured melting point for the input molecule. Input: `CC(C)n1nc(-c2sc(NC(=O)CN3CCCCC3)nc2-c2ccccc2)ccc1=O`
A. 189 to 190 °C

Q. Returns the measured melting point for the input molecule. Input: O=S(=O)(c1ccc(Cl)cc1)N1CCCC1c1ccc(Cl)cc1 (racemic)
A. 159 °C

Q. Returns the measured melting point for the input molecule. Input: OC(C=CCN1CCC(O)(c2ccc(Cl)cc2)CC1)c1ccc(F)cc1 (centres undefined)
A. 126 to 127 °C
